Task for the reader: assign each of the following binders its reported interaction score.
- MEASURED ON: T1, 4H807-AA
- T1 chain: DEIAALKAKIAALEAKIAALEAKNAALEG
- PROTOCOL DETAILS: two-hybrid library CCmax;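 note: natural log of median RNA to DNA barcode read ratio; higher means stronger binding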
- COND: mean of both orientations
Numbers only.

Sample answers from the record:
DEIAALKAENAALKAEIAALKAENAALKG [4H716-AA]: -1.6
DKIAALEAEIAALKAENAALKAKNAALEG [4H2143-AA]: -1.57
DKIAALEAENAALKAKNAALEAEIAALKG [4H2290-AA]: -1.62
DKIAALEAKNAALEAEIAALKAKNAALEG [4H2447-AA]: -1.69
DKNAALEAKIAALEAEIAALEAEIAALKG [4H3330-AA]: -1.35
DKIAALEAEIAALKAKIAALEAENAALKG [4H2148-AA]: -1.41
DENAALKAKIAALEAKNAALEAKIAALEG [4H1845-AA]: -1.58
DKIAALEAKNAALEAENAALKAEIAALKG [4H2458-AA]: -1.17

Kindly consider the entry below.
What does the record list as interaction score for DEIAALKAENAALKAENAALKAKIAALEG [4H733-AA] ? -1.53
